The values you see were collected from patent US6452032B1.

Target: RARγ (Homo sapiens)
Sequence (P13631 1-454): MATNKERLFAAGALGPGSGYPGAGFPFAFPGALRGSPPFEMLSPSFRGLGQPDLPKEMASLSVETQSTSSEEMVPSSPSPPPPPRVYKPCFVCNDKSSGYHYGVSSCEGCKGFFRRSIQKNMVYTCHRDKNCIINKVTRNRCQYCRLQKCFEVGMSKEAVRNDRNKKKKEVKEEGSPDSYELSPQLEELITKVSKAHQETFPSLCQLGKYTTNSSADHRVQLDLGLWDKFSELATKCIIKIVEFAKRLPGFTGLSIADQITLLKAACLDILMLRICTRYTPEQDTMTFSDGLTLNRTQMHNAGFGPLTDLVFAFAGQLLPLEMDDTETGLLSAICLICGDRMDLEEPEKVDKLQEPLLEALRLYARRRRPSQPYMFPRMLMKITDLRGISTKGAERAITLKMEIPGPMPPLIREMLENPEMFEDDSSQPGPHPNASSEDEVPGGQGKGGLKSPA
Assay: Transactivation assay, luciferase reporter, full length RARγ
Format: cell-based
Details: concentration giving 50% maximal transcription of the reporter gene; read-out: Trans (EC50) RARγ
MEASURED ENDPOINT: EC50
Kindly write the number and append the unit.

Item CC1(C)CCC(C)(C)c2cc(/C(=C/c3ccc(C(=O)O)s3)[Si](C)(C)C)ccc21 [Compound 192295] : provide EC50
330 nM

====

Molecular target: RARβ (Homo sapiens)
Construct: expressed in transfected cells
Sequence (P10826 whole entry, species assumed): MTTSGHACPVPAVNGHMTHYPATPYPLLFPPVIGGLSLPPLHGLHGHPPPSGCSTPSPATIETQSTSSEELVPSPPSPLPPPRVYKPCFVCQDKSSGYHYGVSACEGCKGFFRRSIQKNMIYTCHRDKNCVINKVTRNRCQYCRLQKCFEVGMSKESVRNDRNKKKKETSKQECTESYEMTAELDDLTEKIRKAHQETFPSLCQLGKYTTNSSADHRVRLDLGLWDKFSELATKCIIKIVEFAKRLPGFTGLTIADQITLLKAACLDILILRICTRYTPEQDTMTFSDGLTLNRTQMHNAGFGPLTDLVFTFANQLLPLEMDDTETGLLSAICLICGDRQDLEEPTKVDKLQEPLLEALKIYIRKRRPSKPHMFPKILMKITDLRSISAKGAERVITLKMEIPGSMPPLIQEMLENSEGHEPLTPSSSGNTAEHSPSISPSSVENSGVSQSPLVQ
Assay: Competition binding assay, radiolabeled all-trans-retinoic acid, RARβ
Conditions: competition with radiolabeled all-trans-retinoic acid; read-out: Bind (KD50) RARβ
MEASURED ENDPOINT: Kd (nM)
Answer in nM, number only, no unit symbol.

// below: answered molecules
>>> numeric_value("Cc1cc2c(cc1/C(=C/c1ccc(C(=O)O)s1)[Si](C)(C)C)C(C)(C)CCC2(C)C [Compound 192294]")
8000
>>> numeric_value("CC1(C)CC(C)(C)c2cc(/C(=C/c3ccc(C(=O)C(=O)O)cc3)[Si](C)(C)C)ccc2O1 [Compound 192452]")
3300
>>> numeric_value("Cc1cc2c(cc1/C(=C/c1ccc(C(=O)C(=O)O)cc1)[Si](C)(C)C)C(C)(C)CCC2(C)C [Compound 192192]")
699

Item CC1(C)CCC(C)(C)c2cc(/C(=C/c3ccc(C(=O)O)s3)[Si](C)(C)C)ccc21 [Compound 192295] : provide Kd
499

====

Target: RXRβ (Homo sapiens, UniProt P28702)
Construct: encoding the full length receptors RARα, RARβ, RARγ, RXRα, RXRβ, and RXRγ
Sequence (P28702 1-533): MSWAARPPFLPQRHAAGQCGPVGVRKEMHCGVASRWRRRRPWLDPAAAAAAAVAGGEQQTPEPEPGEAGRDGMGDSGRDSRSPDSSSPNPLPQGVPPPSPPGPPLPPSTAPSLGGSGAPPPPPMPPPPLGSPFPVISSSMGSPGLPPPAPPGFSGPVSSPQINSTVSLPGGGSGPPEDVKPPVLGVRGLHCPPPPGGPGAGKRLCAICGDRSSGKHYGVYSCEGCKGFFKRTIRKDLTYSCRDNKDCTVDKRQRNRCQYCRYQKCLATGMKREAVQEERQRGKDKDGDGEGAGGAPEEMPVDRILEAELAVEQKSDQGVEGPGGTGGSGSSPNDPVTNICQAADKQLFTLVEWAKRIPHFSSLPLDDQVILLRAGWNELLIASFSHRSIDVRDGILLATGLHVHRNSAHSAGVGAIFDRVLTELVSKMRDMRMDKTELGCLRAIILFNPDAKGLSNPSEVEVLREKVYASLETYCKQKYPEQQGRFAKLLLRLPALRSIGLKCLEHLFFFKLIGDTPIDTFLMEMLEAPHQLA
Assay: Transactivation assay, luciferase reporter, full length RXRβ
Settings: concentration giving 50% maximal transcription of the reporter gene; read-out: Trans (EC50) RXRβ
MEASURED ENDPOINT: pEC50
pEC50 (log units): -log10 of the concentration in mol/L.

Item "Cc1cc2c(cc1/C(=C/c1ccc(C(=O)C(=O)O)cc1)[Si](C)(C)C)C(C)(C)CCC2(C)C" : provide pEC50
6.11

====

Target: RARγ (Homo sapiens)
Test: Competition binding assay, radiolabeled all-trans-retinoic acid, RARγ
Conditions: competition with radiolabeled all-trans-retinoic acid; read-out: Bind (KD50) RARγ
Kd values for the compounds below.
Answer in µM, number only, no unit symbol.

// below: answered compounds
>>> numeric_value("CC1(C)CC(C)(C)c2cc(/C(=C/c3ccc(C(=O)C(=O)O)cc3)[Si](C)(C)C)ccc2O1")
4.52
>>> numeric_value("Cc1cc2c(cc1/C(=C/c1ccc(C(=O)C(=O)O)cc1)[Si](C)(C)C)C(C)(C)CCC2(C)C")
2.02
>>> numeric_value("CC1(C)CCC(C)(C)c2cc(/C(=C/c3ccc(C(=O)O)s3)[Si](C)(C)C)ccc21")
1.55

Proceed to the following item.
Fetch value of Kd on RARγ (Homo sapiens) for "Cc1cc2c(cc1/C(=C/c1ccc(C(=O)O)s1)[Si](C)(C)C)C(C)(C)CCC2(C)C" .
8.94

====

Target: RARβ (Homo sapiens)
Construct: expressed in transfected cells
Assay: Transactivation assay, luciferase reporter, full length RARβ
Assay type: cell-based
Details: concentration giving 50% maximal transcription of the reporter gene; read-out: Trans (EC50) RARβ
MEASURED ENDPOINT: pEC50
pEC50 (log units): -log10 of the concentration in mol/L.

>>> numeric_value("Cc1cc2c(cc1/C(=C/c1ccc(C(=O)C(=O)O)cc1)[Si](C)(C)C)C(C)(C)CCC2(C)C")
7.06

Fetch value of pEC50 on RARβ (Homo sapiens) for "CC1(C)CCC(C)(C)c2cc(/C(=C/c3ccc(C(=O)O)s3)[Si](C)(C)C)ccc21" .
6.54

====

Target: RARγ (Homo sapiens)
Sequence (P13631 1-454): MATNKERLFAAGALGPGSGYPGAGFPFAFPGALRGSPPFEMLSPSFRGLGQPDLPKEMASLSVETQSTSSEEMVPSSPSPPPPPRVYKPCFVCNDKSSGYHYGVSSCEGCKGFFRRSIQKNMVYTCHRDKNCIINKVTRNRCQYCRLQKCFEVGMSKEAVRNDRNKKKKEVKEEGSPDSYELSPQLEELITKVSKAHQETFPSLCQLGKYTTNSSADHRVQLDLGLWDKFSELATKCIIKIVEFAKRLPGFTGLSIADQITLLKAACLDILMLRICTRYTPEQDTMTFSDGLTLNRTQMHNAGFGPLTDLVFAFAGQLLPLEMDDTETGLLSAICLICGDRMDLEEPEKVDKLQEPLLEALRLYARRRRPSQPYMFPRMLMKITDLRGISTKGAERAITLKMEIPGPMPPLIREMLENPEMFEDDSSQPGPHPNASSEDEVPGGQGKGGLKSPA
Experiment: Transactivation assay, luciferase reporter, full length RARγ
Assay type: cell-based
MEASURED ENDPOINT: pEC50
pEC50 (log units): -log10 of the concentration in mol/L.

Item CC1(C)CCC(C)(C)c2cc(/C(=C/c3ccc(C(=O)C(=O)O)cc3)[Si](C)(C)C)ccc21 [Compound 192337] : provide pEC50
5.82

====

Target protein (sequence): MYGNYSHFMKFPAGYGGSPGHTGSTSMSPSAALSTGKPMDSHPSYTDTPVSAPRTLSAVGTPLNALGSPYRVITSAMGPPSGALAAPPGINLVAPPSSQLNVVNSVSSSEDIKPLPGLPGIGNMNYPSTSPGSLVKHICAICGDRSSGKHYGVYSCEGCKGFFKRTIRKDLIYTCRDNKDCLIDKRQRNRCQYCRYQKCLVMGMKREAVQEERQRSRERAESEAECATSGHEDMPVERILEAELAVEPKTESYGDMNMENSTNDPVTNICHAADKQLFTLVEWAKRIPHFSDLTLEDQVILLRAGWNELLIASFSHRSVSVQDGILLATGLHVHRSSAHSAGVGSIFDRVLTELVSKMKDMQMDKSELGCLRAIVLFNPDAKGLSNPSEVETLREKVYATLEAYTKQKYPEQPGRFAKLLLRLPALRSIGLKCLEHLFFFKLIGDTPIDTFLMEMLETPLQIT
MEASURED ENDPOINT: Kd

Item Cc1cc2c(cc1/C(=C/c1ccc(C(=O)C(=O)O)cc1)[Si](C)(C)C)C(C)(C)CCC2(C)C [Compound 192192] : provide Kd
> 1 µM

====

Target: UniProt P10276
Sequence (P10276 whole entry, species assumed): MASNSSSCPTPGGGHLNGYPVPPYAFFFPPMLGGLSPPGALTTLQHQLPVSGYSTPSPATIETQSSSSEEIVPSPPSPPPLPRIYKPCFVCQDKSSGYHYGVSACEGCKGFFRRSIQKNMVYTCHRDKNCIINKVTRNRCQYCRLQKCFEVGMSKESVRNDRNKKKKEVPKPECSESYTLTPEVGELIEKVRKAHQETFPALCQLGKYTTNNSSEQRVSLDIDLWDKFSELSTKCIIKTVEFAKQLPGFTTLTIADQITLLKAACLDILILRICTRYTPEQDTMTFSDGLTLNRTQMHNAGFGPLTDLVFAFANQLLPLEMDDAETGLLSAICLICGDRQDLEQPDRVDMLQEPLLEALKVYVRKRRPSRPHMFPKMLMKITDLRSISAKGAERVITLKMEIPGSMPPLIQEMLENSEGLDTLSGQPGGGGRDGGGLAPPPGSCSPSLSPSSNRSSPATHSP
Test: Competition binding assay, radiolabeled all-trans-retinoic acid, RARα
Procedure: Binding assays were performed using a classic competition assay format in which cloned receptor RAR mand RXR molecules were first loaded with either radiolabeled all-trans-retinoic acid (RAR) or radiolabeled 9-cis retinoic acid (RXR), and then the amount of radioactivity liberated with increasing concentration of test compound was measured. These compounds are designated AGN 192192, AGN 192337, AGN 192294, AGN 192295, and AGN 192452, respectively. […]
MEASURED ENDPOINT: Kd (nM)
Answer in nM, number only, no unit symbol.

Item CC1(C)CCC(C)(C)c2cc(/C(=C/c3ccc(C(=O)C(=O)O)cc3)[Si](C)(C)C)ccc21 [Compound 192337] : provide Kd
2280
